Field: INHIBITION. Provide a value for each of the molecules that follow.
# System: Plasmodium falciparum
# assay-info: Screen against P. falciparum Asexual Blood Stage (ABS), at 5uM
# Format: functional, Dd2
# test-context: tested at 5 uM
Out of some 65,000 compounds screened, about 2,100 (3.2%) showed an effect of 50% or more. The median lay at about -52%. The sample as a whole holds a higher share of strong results than the screen did.

| molecule | target-or-test-system | INHIBITION |
| --- | --- | --- |
| CNC(=O)[C@@H]1C[C@H]2CN(C(=O)c3ccccn3)C[C@H]2N1C(C)C | Plasmodium falciparum | -23% |
| Cn1cc(CN2CCC3(CC2)C(=O)Nc2ccccc23)cn1 | Plasmodium falciparum | -74.2% |
| Cc1cn2nc(N3CCCC3CC(C)(C)C)sc2n1 (stereo unspecified) | Plasmodium falciparum | 71.6% |
| Cc1ccc(N2CCO[C@H]3CN(Cc4cccnc4)C[C@H]32)nn1 | Plasmodium falciparum | -18.3% |
| COCCn1c(C(=O)NCc2n[nH]c(C)n2)cc2ccccc21 | Plasmodium falciparum | -74.2% |

Next molecule, INHIBITION to be filled in.
Looking up `Cn1cc(CN2CCN(CC3(c4ccccc4)CC3)CC2)cn1` , I see its INHIBITION listed as 78.9%

* * *

# System: Plasmodium falciparum
# assay-info: Screen against P. falciparum Asexual Blood Stage (ABS), at 5uM
# Type: functional, Dd2
# test-context: tested at 5 uM
Screen size: about 65,000 compounds; about 2,100 (3.2%) showed an effect of 50% or more. The median lay at about -52%. The list comes from a sample in which strong results are over-represented; it also holds close analogues and randomly drawn compounds.
attribute-measured: INHIBITION (%)
Give bare numbers, in %.

Sample records with INHIBITION:
| compound | result-unit | reported-measurement |
| --- | --- | --- |
| Clc1ccccc1CCN1CCN(c2ccc3nncn3n2)CC1 | % | 74.9 |
| O=C1CC[C@@H]2[C@@H](CCN2Cc2ccncc2)N1c1ccccc1 | % | -11.8 |
| Cc1ncc2c(n1)CCCC2NC(=O)c1cnn(Cc2ccccc2)c1 (configuration not stated) | % | -115 |
| CC(C)c1cc(N2CCCC3(CCN(C)C3)C2)ncn1 (configuration not stated) | % | -28.1 |

Below is a list of compounds. For each, state its recorded INHIBITION.
1. O=C(C1CCCCC1)N1CCO[C@@H]2CNC[C@@H]21
2. C[C@@H]1CN(C2CCOCC2)C[C@]12CCN(c1cccnc1)C2=O
3. c1ccc(CNc2ncc(CN3CC[C@@H]4CC[C@H](C3)N4)cn2)cc1
4. CNCC[C@H]1CC(C)(C)Oc2ccc(OC)cc21

Reply text:
1. -65.1
2. -104
3. -65
4. 73.8

Below is a list of compounds. For each, state its recorded INHIBITION.
1. Cc1cc(CN2CCc3nc(-c4ccncc4)nc(O)c3CC2)c(C)s1
2. c1cnc(N2CCO[C@@H]3CN(Cc4ccoc4)C[C@@H]3C2)nc1
3. c1cnc(NC[C@@H]2CCC[C@@H]3CN(Cc4cccnc4)C[C@@H]32)nc1
4. O=C(N[C@H]1COC[C@@H]1N1CCCC1)c1csc(Cc2ccccc2)n1

Reply text:
1: 91; 2: -30.5; 3: 42.2; 4: -21.2
